Each entry below carries its reported Kd.
Target: T1, S. aureus gamma-hemolysin component A (HlgA) (Staphylococcus aureus, UniProt P0A071 30-309)
T1 sequence: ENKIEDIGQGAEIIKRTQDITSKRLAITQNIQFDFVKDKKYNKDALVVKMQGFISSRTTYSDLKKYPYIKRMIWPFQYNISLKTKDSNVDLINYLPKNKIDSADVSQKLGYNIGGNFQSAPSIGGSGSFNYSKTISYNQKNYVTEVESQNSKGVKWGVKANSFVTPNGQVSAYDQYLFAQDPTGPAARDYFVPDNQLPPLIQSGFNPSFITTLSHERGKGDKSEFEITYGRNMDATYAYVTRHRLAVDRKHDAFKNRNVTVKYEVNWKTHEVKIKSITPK
Assay: BLI, biotinylated VHH on streptavidin sensor, HlgA in solution
quantity.kind: Kd (nM)

[[record]]
binder = "Bm31G04 (VHH) VHH: QVQLVESGGGLVQPGGSLRLSCAASGITFTFYDMGWYRQAPGKQRELVATISISSSTTYADSVKGRFTISRDNAKNTVYLQMNSLKPEDTAVYYCNAQHVDSDYLAGYDYFGQGTQVTVSS"
unit_symbol = "nM"
result_qualifier = "="
reported_result = 0.025

[[record]]
binder = "Bm31G03 (VHH) VHH: QVQLVESGGGLVQAGGSLRLSCAASGIIFSFYDMGWYRQAPGKQREVVATISISGRTTYADSVKGRFTISRDDAKNTVYLQMNSLKPEDTAVYICNAQHVDSDYLAGYDYFGQGTQVTVSS"
unit_symbol = "nM"
result_qualifier = "="
reported_result = 0.015

[[record]]
binder = "Bm31F09 (VHH) VHH: QVQLVESGGALVQPGGSLRLSCAASGFTFDDYVMSWVRQAPGTGLEWVSSIHTASSDTYYADSVKDRFTISTDNAKNTLYLQMNSLKPEDTAVYYCAADKAPLTIATMTRDEYDYWGQGTQVTVSS"
unit_symbol = "nM"
result_qualifier = "="
reported_result = 0.09

[[record]]
binder = "Bm31B04 (VHH) VHH: QVQLVESGGGLVQPGGSLRLSCAASGSSFSIYGMSWYRQAPGNQRELVALINVGDWTTYADSVKGRFTISRDSAKNTVYLQMNSLKPEDTAVYYCKADLSVSGSSFIRTYWGQGTQVTVSS"
unit_symbol = "nM"
result_qualifier = "≤"
reported_result = 0.01

[[record]]
binder = "Bm31A09 (VHH) VHH: QVQLVQSGGGLVQAGGSLRLSCAASGSTGSIYVMGWFRQAPGKQRELVASITRGEGSANYADSVKGRFTISRDNAKNTLYLQMNSLKPEDTAVYYCHADTGLGDYSDYAPHGYKYDYWGQGTQVTVSS"
unit_symbol = "nM"
result_qualifier = "="
reported_result = 0.05

[[record]]
binder = "Bm31A08 (VHH) VHH: QVQLVESGGGLAQPGGSLTLSCAASGVVWSKYVMSWVRQVPEKGFEWVSGIKSDGSDTYYADSVKGRFTVSGDLAKKTVYLQLNSLKPEDTALYYCVLEYGTSWPPRVEEYDYWGQGTQVTVSS"
unit_symbol = "nM"
result_qualifier = "≤"
reported_result = 0.01

[[record]]
binder = "Bm31A04 (VHH) VHH: QVQLVQSGGGLVQPGGSLRLSCAASESISNIYVMGWFRQAPGKQRELVAAITSSNNTNYADSVKGRFTISRDNAKNTVYLQMNSLKPEDTAVYYCNADWGLGGYSDYGEYDYWGQGTQVTVSS"
unit_symbol = "nM"
result_qualifier = "="
reported_result = 0.06

[[record]]
binder = "Bm31D02 (VHH) VHH: QVQLVESGGGLVQAGGSLRLSCAASGSTGSIYVMGWFRQAPGKQRELVASITRGEGSANYADSVKGRFTISRDNAKNTLYLQMNSLKPEDTAVYYCHADTGLGDYSDYAPHGYKYDYWGQGTQVTVSS"
unit_symbol = "nM"
result_qualifier = "="
reported_result = 0.07

[[record]]
binder = "Bm31G12 (VHH) VHH: QVQLVESGGGLVQPGGSLRLSCAAAGFTVDDYVMSWVRQVPGKGREWVSSIHSYSSDTYYADSVKGRFTISTDNAKNTLYLQMNSLKPEDTAVYYCAADKDPLTIATMTRYEYDYWGQGTQVTVSS"
unit_symbol = "nM"
result_qualifier = "="
reported_result = 0.025

[[record]]
binder = "Bm31D04 (VHH) VHH: QVQLVESGGGLVQPGGSLRLSCAASGIIFDFYDMGWYRQAPGKQRELVAGISISGSTTYADSVKGRFTISRDNAKNTIYLQMNSLKPEDTAVYYCNAHHVDSDYLRGYDYFGQGTQVTVSS"
unit_symbol = "nM"
result_qualifier = "="
reported_result = 0.05

